System: HeLa cells
Test: cells
Format: cell-based
Conditions: Homo sapiens
Please respond with reported log10 IC50 for every item in the list.
Values reflect log10 of reported IC50 (µM).

Give measured log10 IC50 for every item shown.
1. C=CCOC(=O)c1ccccc1N1C(=O)c2ccccc2N(C)C1c1ccc(C)s1 (stereo not shown)
2. CN1c2ccccc2C(=O)N(c2ccccc2)C1c1ccc(-c2ccco2)s1 (stereo not shown)
3. CSc1ccccc1N1C(=O)c2ccccc2N(C)C1c1ccc(C)s1 (stereo not shown)
4. Cc1ccc(C2N(C)c3ccccc3C(=O)N2c2ccccc2I)s1 (stereo not shown)

result:
1. 1.11
2. 0.18
3. 0.58
4. 0.73

* * *

Please respond with reported retrograde transport, % control for every item in the list.
Test system: retrograde transport of Shiga toxin subunit B (StxB)
Type: cell-based

Give measured retrograde transport, % control for every item shown.
1. O=C1c2ccccc2NC(c2ccc(-c3ccccc3)s2)N1c1ccccc1 (centres unmarked) [Compound 13]
2. Cc1nc(-c2ccc(C3Nc4ccccc4C(=O)N3c3ccccc3)s2)cs1 (centres unmarked) [Compound 21]
3. O=C1c2ccccc2NC(c2ccc(-c3ccco3)s2)N1c1ccccc1 (centres unmarked) [Compound 20]

result:
1. 13.1%
2. 0.0%
3. 6.5%

* * *

Test system: HeLa cells
Experiment: cells
Type: cell-based
Conditions: Homo sapiens
attribute.measured: IC50 (µM)
Give bare numbers, in µM.

The examples below pair each entry with its known result.
compound: Cc1ccc(C2N(C)c3ccccc3C(=O)N2c2ccccc2-c2ccccc2)s1 (stereo not drawn)
IC50 [µM]: 3.7
//
compound: Cc1ccc(C2N(C)c3ccccc3C(=O)N2c2ccccc2C(=O)O)s1 (stereo not drawn)
IC50 [µM]: 11.2
//
compound: Cc1ccc(C2N(C)c3ccccc3C(=O)N2c2ccccc2F)s1 (stereo not drawn)
IC50 [µM]: 5.5
//
compound: Cc1ccc(C2N(C)c3ccccc3C(=O)N2c2ccccc2Cl)s1 (stereo not drawn)
IC50 [µM]: 8.2
//
compound: COc1ccccc1N1C(=O)c2ccccc2N(C)C1c1ccc(C)s1 (stereo not drawn)
IC50 [µM]: 5.4

Give measured IC50 for every item shown.
1. COCCOc1ccccc1N1C(=O)c2ccccc2N(C)C1c1ccc(C)s1 (stereo not drawn)
2. O=C1c2ccccc2NC(c2ccc(Br)s2)N1c1ccccc1 (stereo not drawn)
3. CN1c2ccccc2C(=O)N(c2ccccc2)C1c1ccc(CN=[N+]=[N-])s1 (stereo not drawn)
4. Cc1nc(-c2ccc(C3N(C)c4ccc(F)cc4C(=O)N3c3ccccc3C(=O)c3ccccc3)s2)cs1 (stereo not drawn)

result:
1. 4.2
2. 13.7
3. 12
4. 1

* * *

Test system: retrograde transport of Shiga toxin subunit B (StxB)
Assay type: cell-based
attribute.measured: retrograde transport, % control (%)
Answers are plain numbers, in %.

compound: CCc1ccc(C2N(C)c3ccccc3C(=O)N2c2ccccc2)s1 (centres unmarked) [Compound 41]
retrograde transport, % control [%]: 0.0
//
compound: CN1c2ccccc2C(=O)N(c2ccccc2)C1c1ccc(-c2cccs2)s1 (centres unmarked) [Compound 39]
retrograde transport, % control [%]: 6.2
//
compound: CCc1ccc(C2Nc3ccccc3C(=O)N2c2ccccc2)s1 (centres unmarked) [Compound 7]
retrograde transport, % control [%]: 13.5
//
compound: CN1c2ccccc2C(=O)N(c2ccccc2)C1c1ccc(-c2ccco2)s1 (centres unmarked) [Compound 40]
retrograde transport, % control [%]: 5.3

Give measured retrograde transport, % control for every item shown.
1. CN1c2ccccc2C(=O)N(c2ccccc2)C1c1ccc(-c2ccccn2)s1 (centres unmarked) [Compound 37]
2. O=C1c2ccccc2NC(c2ccc(-c3cccs3)s2)N1c1ccccc1 (centres unmarked) [Compound 18]
3. O=C1c2ccccc2NC(c2ccc(-c3ccccn3)s2)N1c1ccccc1 (centres unmarked) [Compound 19]
4. CSc1ccc(C2N(C)c3ccccc3C(=O)N2c2ccccc2)s1 (centres unmarked) [Compound 38]
5. CN1c2ccccc2C(=O)N(c2ccccc2)C1c1ccc(-c2ccccc2)s1 (centres unmarked) [Compound 36]
6. CSc1ccc(C2Nc3ccccc3C(=O)N2c2ccccc2)s1 (centres unmarked) [Compound 17]
7. Cc1nc(-c2ccc(C3N(C)c4ccccc4C(=O)N3c3ccccc3)s2)cs1 (centres unmarked) [Compound 42]

result:
10.3
17.1
10.7
18.2
7.1
22.8
0.0

Reference source: patent US9540356B2
